System: HL-60(TB) leukemia
PROTOCOL: NCI tumour cell line growth inhibition, 48 h
MEASURED QUANTITY: TGI

{"COMPOUND": "O=c1[nH]c2cc([N+](=O)[O-])ccc2nc1/C(=N/Nc1ccccc1)C(O)c1ccccc1Cl (centres undefined)", "TGI": "> 100 µM"}
{"COMPOUND": "O=C1/C(=C/c2cccc(Br)c2)CCc2ccccc21", "TGI": "28.3 µM"}
{"COMPOUND": "COc1c(C)c2c(c(O)c1C/C=C(\\C)CCC(=O)O)C(=O)OC2", "TGI": "> 100 µM"}

Now for the compound whose TGI we want.
# compound `CCSc1[nH]c(NC(=S)NC(=O)c2ccccc2Cl)c(C(N)=O)c1C(N)=O` ; its TGI = > 10 µM

The reported measurements were obtained from PubChem BioAssay (NCI).
